Cited source for all entries: the RNAGym collection of RNA variant scans (doi:10.1073/pnas.2313332121)

B1: TPR 5TU (parent)
chain: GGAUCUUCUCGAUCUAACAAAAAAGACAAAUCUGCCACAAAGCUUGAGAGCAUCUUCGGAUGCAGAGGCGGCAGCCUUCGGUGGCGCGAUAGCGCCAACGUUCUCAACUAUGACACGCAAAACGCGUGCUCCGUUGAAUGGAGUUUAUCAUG

- Variants of: B1
- Assay Text: polymerase ribozyme fitness, log enrichment relative to wild type (log ratio); higher = more active; in vitro selection for triplet polymerase activity
Variants at the floor of the assay were thinned out.
Recorded Endpoint: polymerase ribozyme fitness (log ratio)
Write the value as a bare number.

Prompt: Report polymerase ribozyme fitness (log ratio), nothing else, for this variant: A89U U109G
Response: -0.917

Prompt: Report polymerase ribozyme fitness (log ratio), nothing else, for this variant: C85A C95A C125U
Response: -1.39

Prompt: Report polymerase ribozyme fitness (log ratio), nothing else, for this variant: A60U C85A U145A
Response: -1.8

Prompt: Report polymerase ribozyme fitness (log ratio), nothing else, for this variant: C35A U101C
Response: -3.87

Prompt: Report polymerase ribozyme fitness (log ratio), nothing else, for this variant: A12U C54U G86C
Response: -3.04

Prompt: Report polymerase ribozyme fitness (log ratio), nothing else, for this variant: C96A C105G C125A
Response: -2.29

Prompt: Report polymerase ribozyme fitness (log ratio), nothing else, for this variant: G83C C118A A142G
Response: -2.35

Prompt: Report polymerase ribozyme fitness (log ratio), nothing else, for this variant: C54A G94U A97C C125G
Response: -2.89

Prompt: Report polymerase ribozyme fitness (log ratio), nothing else, for this variant: C93U G143C
Response: -3.12

Prompt: Report polymerase ribozyme fitness (log ratio), nothing else, for this variant: C32G G92A U111G
Response: -4.13

Prompt: Report polymerase ribozyme fitness (log ratio), nothing else, for this variant: U6G C96U
Response: -0.759

Prompt: Report polymerase ribozyme fitness (log ratio), nothing else, for this variant: A26U G62A
Response: -1.51

Prompt: Report polymerase ribozyme fitness (log ratio), nothing else, for this variant: A40U C54U A97U C99U
Response: -2.64

Prompt: Report polymerase ribozyme fitness (log ratio), nothing else, for this variant: G81C G126C U145C
Response: 0.873

Prompt: Report polymerase ribozyme fitness (log ratio), nothing else, for this variant: C76U A119G G126U U139G
Response: -0.649

Prompt: Report polymerase ribozyme fitness (log ratio), nothing else, for this variant: C14U A115G
Response: -2.56

Prompt: Report polymerase ribozyme fitness (log ratio), nothing else, for this variant: U31C U101C G124A
Response: 1.05

Prompt: Report polymerase ribozyme fitness (log ratio), nothing else, for this variant: U61A A97C
Response: -1.48

Prompt: Report polymerase ribozyme fitness (log ratio), nothing else, for this variant: C5U C85G U104C
Response: -3.03

Prompt: Report polymerase ribozyme fitness (log ratio), nothing else, for this variant: G92U U101A A119U G143U
Response: -3.62

Prompt: Report polymerase ribozyme fitness (log ratio), nothing else, for this variant: C69A G143U
Response: -3.34

Prompt: Report polymerase ribozyme fitness (log ratio), nothing else, for this variant: C76A A91G
Response: -3.83

Prompt: Report polymerase ribozyme fitness (log ratio), nothing else, for this variant: U61A C96G G117A
Response: -2.2

Prompt: Report polymerase ribozyme fitness (log ratio), nothing else, for this variant: A26U C85U C105U A142C
Response: -3.69

Prompt: Report polymerase ribozyme fitness (log ratio), nothing else, for this variant: U13G A106G
Response: -1.5

Prompt: Report polymerase ribozyme fitness (log ratio), nothing else, for this variant: C57A A138C
Response: -3.77

Prompt: Report polymerase ribozyme fitness (log ratio), nothing else, for this variant: A73G C96U A119U
Response: -0.341

Prompt: Report polymerase ribozyme fitness (log ratio), nothing else, for this variant: `A60U`
Response: -0.665

Prompt: Report polymerase ribozyme fitness (log ratio), nothing else, for this variant: A52G C93U G94C A97C
Response: -3.73

Prompt: Report polymerase ribozyme fitness (log ratio), nothing else, for this variant: U61A G86U
Response: -2.99

Prompt: Report polymerase ribozyme fitness (log ratio), nothing else, for this variant: U102G A121U
Response: -2.32

Prompt: Report polymerase ribozyme fitness (log ratio), nothing else, for this variant: C76U G84C
Response: -1.35

Prompt: Report polymerase ribozyme fitness (log ratio), nothing else, for this variant: U44A U82A
Response: -4.18

Prompt: Report polymerase ribozyme fitness (log ratio), nothing else, for this variant: C8G C125A
Response: -3.82

Prompt: Report polymerase ribozyme fitness (log ratio), nothing else, for this variant: C18U C57U G86A
Response: -1.67

Prompt: Report polymerase ribozyme fitness (log ratio), nothing else, for this variant: G58C G140A
Response: -3.51

Prompt: Report polymerase ribozyme fitness (log ratio), nothing else, for this variant: A49U G58A U102G A122U
Response: -0.217

Prompt: Report polymerase ribozyme fitness (log ratio), nothing else, for this variant: U31A A41G C76U C93A G136A G140A
Response: -3.72

Prompt: Report polymerase ribozyme fitness (log ratio), nothing else, for this variant: C35A G94A
Response: -3.56

Prompt: Report polymerase ribozyme fitness (log ratio), nothing else, for this variant: A41C C93U C105U
Response: -1.68

Prompt: Report polymerase ribozyme fitness (log ratio), nothing else, for this variant: A39C G133C U146A
Response: -3.57

Prompt: Report polymerase ribozyme fitness (log ratio), nothing else, for this variant: G83U G143U
Response: -1.68

Prompt: Report polymerase ribozyme fitness (log ratio), nothing else, for this variant: C14G C35U C95U U101A
Response: -3.82

Prompt: Report polymerase ribozyme fitness (log ratio), nothing else, for this variant: A49G C96U
Response: -0.233

Prompt: Report polymerase ribozyme fitness (log ratio), nothing else, for this variant: A52C G58A C93A C118U
Response: -3.55
